study_target: EHMT1 (Homo sapiens)
Sequence (Q9H9B1 whole entry, species assumed): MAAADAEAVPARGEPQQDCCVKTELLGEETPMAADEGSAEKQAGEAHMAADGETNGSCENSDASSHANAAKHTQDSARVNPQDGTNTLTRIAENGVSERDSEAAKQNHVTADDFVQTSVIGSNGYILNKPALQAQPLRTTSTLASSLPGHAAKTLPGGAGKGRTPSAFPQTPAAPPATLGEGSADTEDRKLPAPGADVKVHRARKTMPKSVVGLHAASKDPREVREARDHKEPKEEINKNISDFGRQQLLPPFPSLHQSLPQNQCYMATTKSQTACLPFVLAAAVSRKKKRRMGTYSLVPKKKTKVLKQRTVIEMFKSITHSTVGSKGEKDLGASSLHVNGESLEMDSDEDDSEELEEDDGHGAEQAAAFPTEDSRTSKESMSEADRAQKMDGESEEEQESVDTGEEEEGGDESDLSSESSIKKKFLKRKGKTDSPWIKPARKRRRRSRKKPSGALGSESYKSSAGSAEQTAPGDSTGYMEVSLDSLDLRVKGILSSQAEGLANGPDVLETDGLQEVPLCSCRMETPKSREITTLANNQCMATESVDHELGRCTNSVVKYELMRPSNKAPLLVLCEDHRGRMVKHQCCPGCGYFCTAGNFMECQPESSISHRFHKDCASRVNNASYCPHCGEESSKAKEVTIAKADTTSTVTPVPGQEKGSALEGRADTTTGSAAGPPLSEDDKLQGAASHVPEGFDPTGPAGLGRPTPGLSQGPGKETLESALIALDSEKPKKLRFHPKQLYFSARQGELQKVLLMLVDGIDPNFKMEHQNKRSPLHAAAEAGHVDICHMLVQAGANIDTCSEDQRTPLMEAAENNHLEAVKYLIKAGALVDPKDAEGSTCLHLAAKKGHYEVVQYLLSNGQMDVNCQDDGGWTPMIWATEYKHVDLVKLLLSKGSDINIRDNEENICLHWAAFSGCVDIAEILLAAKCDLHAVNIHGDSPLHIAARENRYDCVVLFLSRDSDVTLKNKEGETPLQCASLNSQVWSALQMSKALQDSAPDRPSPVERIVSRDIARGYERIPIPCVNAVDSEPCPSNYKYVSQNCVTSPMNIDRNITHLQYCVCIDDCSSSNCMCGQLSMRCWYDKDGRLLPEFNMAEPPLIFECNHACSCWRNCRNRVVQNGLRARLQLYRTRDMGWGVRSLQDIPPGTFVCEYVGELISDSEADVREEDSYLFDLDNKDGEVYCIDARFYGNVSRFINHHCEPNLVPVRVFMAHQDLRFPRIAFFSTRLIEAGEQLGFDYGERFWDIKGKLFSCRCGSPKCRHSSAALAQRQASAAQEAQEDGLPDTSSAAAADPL
experimental_protocol: EHMT1 enzyme assay on peptide substrate (EHMT1 PEP)
Format: biochemical
applied_conditions: Table II; read-out: EHMT1 PEP (IC50 μM)
assay_metric: IC50

Check out these entries, answers already filled in.
compound: CNc1nccc(Nc2ccc(OC)c(OCCCN3CCCC3)c2)n1
study_target: EHMT1 (Homo sapiens)
measurement: 0.1 to 1 µM
//
compound: COc1ccc(Nc2ccnc(NCC3CCN(C(C)=O)CC3)n2)cc1OCCCN1CCCC1
study_target: EHMT1 (Homo sapiens)
measurement: 0.1 to 1 µM
//
compound: COc1ccc(Nc2ccc3cnn(C)c3c2)cc1OCCCN1CCCC1
study_target: EHMT1 (Homo sapiens)
measurement: > 10 µM
//
compound: CCCCNc1nccc(NCC2CCCO2)n1 (stereo not drawn)
study_target: EHMT1 (Homo sapiens)
measurement: > 10 µM
//
compound: COc1ccc(Nc2nccc(NC3CCN(C(C)=O)CC3)n2)cc1OCCCN1CCCC1
study_target: EHMT1 (Homo sapiens)
measurement: 0.1 to 1 µM
//
compound: CNc1ccnc(Nc2cccc(OCCCN3CCCC3)c2)n1
study_target: EHMT1 (Homo sapiens)
measurement: 1 to 10 µM
//
compound: CNc1cncc(Nc2ccc(OC)c(OCCCN3CCCC3)c2)n1
study_target: EHMT1 (Homo sapiens)
measurement: 1 to 10 µM
//
compound: COc1ccc(Nc2nccc(N3CCCCC3)n2)cc1OCCCN1CCCC1
study_target: EHMT1 (Homo sapiens)
measurement: 1 to 10 µM

Could you now look at the following compound, please?
Req: Can you share its IC50? I mean this compound: COc1ccc(Nc2nccc(NCC3CCOCC3)n2)cc1OC1CC2(C1)CN(C)C2
Resp: > 10 µM
